biological target: AChE (Homo sapiens); test: biochemical; conditions: mean ± SD of three parallel measurements; phosphate buffer pH 7.7, 25 °C; read-out: IC50 (µM), acetylcholinesterase inhibitory activity
Sequence (P22303 32-614): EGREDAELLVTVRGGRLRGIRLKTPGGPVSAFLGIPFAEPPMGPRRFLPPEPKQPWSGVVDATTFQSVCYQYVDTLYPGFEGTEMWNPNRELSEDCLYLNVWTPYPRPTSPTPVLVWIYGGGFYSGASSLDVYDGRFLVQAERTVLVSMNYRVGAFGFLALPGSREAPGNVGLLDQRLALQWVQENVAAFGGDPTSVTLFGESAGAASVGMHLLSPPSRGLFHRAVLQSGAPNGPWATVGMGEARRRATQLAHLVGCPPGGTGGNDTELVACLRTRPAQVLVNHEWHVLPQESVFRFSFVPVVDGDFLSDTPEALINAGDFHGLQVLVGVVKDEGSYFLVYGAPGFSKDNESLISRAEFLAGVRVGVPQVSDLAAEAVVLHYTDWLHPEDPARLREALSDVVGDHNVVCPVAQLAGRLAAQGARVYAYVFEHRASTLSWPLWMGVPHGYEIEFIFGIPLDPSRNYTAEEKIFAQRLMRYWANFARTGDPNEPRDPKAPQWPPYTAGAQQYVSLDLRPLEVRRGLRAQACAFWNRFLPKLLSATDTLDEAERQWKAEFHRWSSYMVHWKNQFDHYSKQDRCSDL
observable: IC50

Query: Dear colleague, I am looking for the recorded IC50 of the following compound: C/C(=C\C(=O)O)CCO [Compound 5, E-Δ^2-anhydromevalonic acid]
Reply: > 100 µM

Query: Dear colleague, I am looking for the recorded IC50 of the following compound: Cc1cc(C(=O)O)cc(C(C)O)n1 (centres unmarked) [Compound 7]
Reply: > 100 µM

Query: Dear colleague, I am looking for the recorded IC50 of the following compound: COC(=O)CC1=CC(C)OC1=O (centres unmarked) [Compound 3]
Reply: > 100 µM

Query: Dear colleague, I am looking for the recorded IC50 of the following compound: CC1=CC(=O)OCC1 [Compound 6, 4-methyl-5,6-dihydropyren-2-one]
Reply: > 100 µM

Query: Dear colleague, I am looking for the recorded IC50 of the following compound: CC(O)C(O)c1cc2cc(O)cc(O)c2c(=O)o1 (centres unmarked) [Compound 9]
Reply: > 100 µM

Query: Dear colleague, I am looking for the recorded IC50 of the following compound: C[C@@H]1C=C(C[C@@H](O)[C@H](C)O)C(=O)O1 [Compound 4]
Reply: 6.26 µM

Query: Dear colleague, I am looking for the recorded IC50 of the following compound: CC1C=C(CC(=O)O)C(=O)O1 (centres unmarked) [Compound 2]
Reply: > 100 µM

Query: Dear colleague, I am looking for the recorded IC50 of the following compound: C[C@@H](O)Cc1cc2cc(O)cc(O)c2c(=O)o1 [Compound 11, de-O-methyldiaporthin]
Reply: 21.2 µM

Query: Dear colleague, I am looking for the recorded IC50 of the following compound: COc1cc(O)cc2cc(C)oc(=O)c12 [Compound 10, 6-hydroxy-8-methoxy-3-methylisocoumarin]
Reply: > 100 µM

Query: Dear colleague, I am looking for the recorded IC50 of the following compound: C[C@@H]1Cc2cc(O)cc(O)c2C(=O)O1 [Compound 8, (R)-6-hydroxymellein]
Reply: > 100 µM

Query: Dear colleague, I am looking for the recorded IC50 of the following compound: CC1C=C(CO)C(=O)O1 (centres unmarked) [Compound 1]
Reply: > 100 µM

Values from paper PMC8955197
